Read-out: Cytochrome P450 7A1 (Homo sapiens) (UniProt P22680)
EXPERIMENT: LTEA_HepaRG_CYP7A1: Life Technologies and Expression Analysis (LTEA) Assay for Cytochrome P450 7A1 (CYP7A1) using HepaRG (AID 2283496)
STUDY CONDITIONS: mRNA level, 48 h; actives raise or lower the signal
The source made the active and inactive calls. The calls were made as follows: active = hit-call score of the fitted dose curve at least 0.9, where 1 is the maximum; inactive = score below 0.9.
Your reply should match one of these outcome classes. active, inactive

See these solved cases before continuing.
compound="C[C@]12CC[C@@H]3c4ccc(O)cc4C[C@@H](CCCCCCCCCS(=O)CCCC(F)(F)C(F)(F)F)[C@H]3[C@@H]1CC[C@@H]2O (stereo partly specified)" assigned_category=active
compound=CCCCOC(=O)[C@@H](C)Oc1ccc(Oc2ccc(C(F)(F)F)cn2)cc1 assigned_category=active
compound=O=C(c1ccccc1)C1CCCCC1 assigned_category=inactive
compound=O=C(c1ccc(O)cc1O)c1ccc(O)cc1O assigned_category=inactive
compound=COC(=O)c1ccccc1C(=O)O assigned_category=inactive

Test call for this compound, please: `N#CSCSc1nc2ccccc2s1`
inactive

Same for `c1ccc(Nc2ccccc2)cc1`
inactive
